- Conditions Used: buffer; pH 7.4; 6.0 h; 150.0 µM
Readout Type: solubility kinetic

Example entries begin here.
Molecule | solubility kinetic
O=C(c1cnc(N2CCCCC2)c2ccccc12)N1CCN(c2ccccn2)CC1 | > 59 µg/mL
Cc1ccc(S(=O)(=O)Nc2ccccc2C(=O)Nc2cccc(-c3ccccc3)c2)cc1 | < 1 µg/mL
COc1ccc(C2(C(=O)N3CCC(n4cc(-c5nc(C)no5)nn4)CC3)CC2)cc1 | > 60 µg/mL
COc1cccc(CNC(=O)c2ccc(N3CCCC3)c(NC(=O)Nc3ccccc3F)c2)c1 | < 1 µg/mL
O=C(O)CCC(=O)Nc1nc(-c2ccccc2)cs1 | > 41 µg/mL
O=C1Nc2ccc(C(=O)c3ccco3)cc2/C1=C/c1cc(Cl)c(O)c(Cl)c1 | 9.16 µg/mL
Cc1cccc(C)c1C(=O)Nc1cccc([S+](=O)([O-])N2CCCCCC2)c1 | 2.03 µg/mL
Cc1cc(C)c(C(=O)Nc2cccc([S+](=O)([O-])N3CCCCCC3)c2)[nH]1 | < 1 µg/mL

Here's the next entry for you.
Item: CCCCC(C)/C=C(C)/C=C(\C)C(=O)NC1=CC(O)(/C=C/C=C/C=C/C(=O)NC2=C(O)CCC2=O)C2OC2C1=O (centres undefined) | solubility kinetic: > 81 µg/mL

Data provenance: PubChem BioAssay AID1645848
